- tested system: TNK2 (ACK) (Homo sapiens, UniProt Q07912)
- Sequence (Q07912 whole entry): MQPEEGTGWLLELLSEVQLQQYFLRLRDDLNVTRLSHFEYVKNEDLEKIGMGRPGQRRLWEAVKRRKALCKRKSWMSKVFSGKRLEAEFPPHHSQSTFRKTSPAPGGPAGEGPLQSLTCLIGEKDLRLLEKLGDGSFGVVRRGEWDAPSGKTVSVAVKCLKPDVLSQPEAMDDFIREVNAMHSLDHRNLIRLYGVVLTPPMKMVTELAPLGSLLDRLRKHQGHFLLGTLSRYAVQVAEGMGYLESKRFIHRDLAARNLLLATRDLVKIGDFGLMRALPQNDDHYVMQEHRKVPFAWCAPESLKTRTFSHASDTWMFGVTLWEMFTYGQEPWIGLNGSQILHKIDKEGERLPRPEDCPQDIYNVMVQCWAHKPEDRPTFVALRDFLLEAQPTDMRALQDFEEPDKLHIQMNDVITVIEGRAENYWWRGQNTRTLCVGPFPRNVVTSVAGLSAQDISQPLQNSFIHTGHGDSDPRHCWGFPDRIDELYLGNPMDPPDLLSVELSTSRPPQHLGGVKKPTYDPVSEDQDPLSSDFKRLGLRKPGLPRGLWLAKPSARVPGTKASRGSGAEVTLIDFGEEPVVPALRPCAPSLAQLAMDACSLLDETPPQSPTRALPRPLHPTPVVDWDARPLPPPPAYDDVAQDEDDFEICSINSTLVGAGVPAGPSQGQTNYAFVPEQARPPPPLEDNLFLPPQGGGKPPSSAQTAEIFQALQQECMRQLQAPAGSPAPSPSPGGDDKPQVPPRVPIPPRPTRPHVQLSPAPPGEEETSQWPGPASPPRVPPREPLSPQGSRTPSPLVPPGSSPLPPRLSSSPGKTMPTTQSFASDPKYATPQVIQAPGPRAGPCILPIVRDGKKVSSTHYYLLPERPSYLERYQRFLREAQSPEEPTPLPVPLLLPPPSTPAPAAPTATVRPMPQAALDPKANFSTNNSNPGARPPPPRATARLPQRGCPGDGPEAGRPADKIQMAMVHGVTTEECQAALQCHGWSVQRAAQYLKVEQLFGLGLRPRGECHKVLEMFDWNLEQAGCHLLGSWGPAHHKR
- protocol: Tyrosine kinase inhibition assay
- Type: biochemical
- condition info: single concentration 1.0 μM, read-out: percent inhibition
- Experimental: Tyrosine kinase inhibition assays were performed at ThermoFisher Life Technologies (Madison, WI, USA) using standard protocols (SelectScreen Biochemical Profiling Service, Thermo Fisher Scientific). ATP concentrations used were at the apparent Km. […] The apparent ATP Km was previously determined using a Z′-LYTE assay. […] The inhibition activities of compounds were determined in biochemical assays using single concentration (1.0 μM) measurements. […]
measured parameter: inhibition at 1 µM (%)
# unit: % | format: bare number

[[record]]
molecule = "COc1cc2nccc(Oc3ccc(NC(=O)C4(NC(=O)c5ccc(F)cc5)CC4)cc3F)c2cc1Oc1ccc(N)cc1F"
measured_parameter = "inhibition at 1 µM"
units_text = "%"
data_value = 95

[[record]]
molecule = "COc1cc2nccc(Oc3ccc(NC(=O)C4(C(=O)Nc5ccc(F)cc5)CC4)cc3F)c2cc1Oc1ccc(N)cc1F"
measured_parameter = "inhibition at 1 µM"
units_text = "%"
data_value = 89

[[record]]
molecule = "COc1cc2nccc(Oc3ccc(NC(=O)C4(NC(=O)c5ccc(F)cc5)CC4)cc3F)c2cc1Oc1c(F)cc(N)cc1F"
measured_parameter = "inhibition at 1 µM"
units_text = "%"
data_value = 96

[[record]]
molecule = "COc1cc2nccc(Oc3ccc(NC(=O)C4(C(=O)Nc5ccc(F)cc5)CC4)cc3)c2cc1OC [Cabozantinib, reference compound]"
measured_parameter = "inhibition at 1 µM"
units_text = "%"
data_value = 61


Okay, next one:
**Query** Give a short answer stating reported inhibition at 1 µM for COc1cc2nccc(Oc3ccc(NC(=O)C4(NC(=O)c5ccc(F)cc5)CC4)cc3F)c2cc1OC .
**Result** 63

src = patent US20250120967A1
